cytotoxicity at 20 µM values for the molecules below.
system: CT26.CL25 colon cancer tumor endothelial cells; assay: Colon CT26 ex vivo model of tumor angiogenesis; format: cell-based, mouse; conditions: Mus musculus, Endothelial cell, 48 h, read-out: Cell death
observedProperty: cytotoxicity at 20 µM (%)

>>> measuredresult("CCc1ccc(S(=O)(=O)c2cnc3ccc(OC(F)(F)F)cc3c2-n2cnc(C)c2)cc1")
100
>>> measuredresult("CCc1ccc(S(=O)(=O)c2cnc3ccc(OC(F)(F)F)cc3c2-n2ccnc2)cc1")
100
>>> measuredresult("CCc1ccc(S(=O)(=O)c2cnc3ccc(OC(F)(F)F)cc3c2N2CCC(OCCN(CC)CC)CC2)cc1")
50
>>> measuredresult("CCCCOc1ccc2ncc(S(=O)(=O)c3ccc(OC)c(OC)c3)c(N3CCC(N4CCCCC4)CC3)c2c1")
50
>>> measuredresult("CCCCCCCOc1ccc(S(=O)(=O)c2cnc3ccc([S+](C)[O-])cc3c2N2CCN(C)CC2)cc1 (stereo not drawn)")
100
>>> measuredresult("CCCCOc1ccc(S(=O)(=O)c2cnc3ccc(OC(F)(F)F)cc3c2N2CCC(N3CCCCC3)CC2)cc1")
50
